- TARGET: KOP receptor (Homo sapiens, UniProt P41145)
- Sequence (P41145 whole entry): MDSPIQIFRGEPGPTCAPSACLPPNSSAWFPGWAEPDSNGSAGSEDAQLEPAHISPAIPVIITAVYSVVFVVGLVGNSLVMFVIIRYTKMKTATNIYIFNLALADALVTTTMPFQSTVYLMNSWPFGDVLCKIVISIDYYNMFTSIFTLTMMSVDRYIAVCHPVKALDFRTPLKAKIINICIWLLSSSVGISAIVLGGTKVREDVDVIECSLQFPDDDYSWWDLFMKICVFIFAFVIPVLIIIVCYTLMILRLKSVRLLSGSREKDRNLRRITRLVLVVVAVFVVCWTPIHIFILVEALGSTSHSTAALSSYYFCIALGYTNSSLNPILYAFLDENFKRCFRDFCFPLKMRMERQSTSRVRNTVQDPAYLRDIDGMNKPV
- ASSAY_INFO: BRET-based arrestin3 recruitment assay
- Format: cell-based
- Parameters: host or cells: HEK293T
- TEST_SETTINGS: hKOP-RLuc8 with arrestin3-mVenus; read-out: potency of arrestin3 recruitment at hKOP
- From the text: The cDNAs for human KOP (hKOP) receptor and the G protein GαoB were obtained from the Missouri S&T cDNA Resource Center. For arrestin recruitment experiments, full-length Renilla luciferase 8 (RLuc8, provided by S. Gambhir) was fused in-frame to the C terminus of the hKOP receptor in the pcDNA3.1 vector. The following human G protein constructs were provided by C. […]
VALUE_TYPE: EC50 (µM)
Write the value in µM as a bare number.

Retrieve EC50 measured for O=C(CN1CCC[C@H]1C(=O)Nc1nccs1)Nc1cccc(F)c1 [MCKK-17S] and print it.
123

Continuing:
Retrieve EC50 measured for O=C(CN1CCCC1C(=O)Nc1nccs1)Nc1cccc(F)c1 (racemic) [MCKK-17] and print it.
164

Every entry's value here was drawn from patent US9868730B2.
